testProtocol: Inhibition of growth after 72 hr continuous exposure to test compounds in Osteosarcoma 143B tumor cell lines
Type: functional
testContext: Homo sapiens
readoutName: GI50 (µM)
Numeric answer only, unit µM assumed.

Look over these answered cases.
molecule="CCOC(=O)C1C(C(=O)O)C2CC[C@H]1O2 (stereo partly drawn)" readoutname=GI50 unittext=µM val=437
molecule="CCOC1OC(=O)[C@H]2[C@@H]1[C@@H]1CC[C@H]2O1 (stereo partly drawn)" readoutname=GI50 unittext=µM val=103
molecule="C[C@@]12C(=O)OC(=O)[C@]1(C)[C@H]1CC[C@@H]2O1 [CANTHARIDIN]" readoutname=GI50 unittext=µM val=10
molecule="CCCOC(=O)C1C(C(=O)O)C2CC[C@H]1O2 (stereo partly drawn)" readoutname=GI50 unittext=µM val=450
molecule="O=C1OC(=O)C2C3CCC(O3)C12 (stereo not drawn)" readoutname=GI50 unittext=µM val=43

Now turn to the next molecule.
Consider COC(=O)C1C(C(=O)O)C2CC[C@H]1O2 (stereo partly drawn) . Its measured GI50 is 118
